procedureText: protein stability index of a GFP-peptide fusion (yeast GPS) (PSI 1-4); higher = more stable; sorted into four equal gates, so the index is relative within each strain
appliedConditions: ubr1∆
// reported protein stability index for each item listed
valueKind: protein stability index

1. YNTSILEFRWLTSSKSV [SIN4] : 2.48
2. KCIKYSEKLITKYFEPT [ECM29] : 2.68
3. ELNEEKKRLMDIDDELN [SMC2] : 3.51
4. IRPLSKPMTAYARADTH [RRP6] : 2.89
5. KKTVAGGAYTVSTAAAA [RPL43A] : 2.15
6. LPLQPIEIDYTVRVDKA [SNF12] : 2.27
7. FFPYYVHTIIAGLDEDG [PRE7] : 3.26
8. ENGDEDEDEDEDEDDDD [QCR6] : 2.46
9. VDLEEVMDTIQEQITLY [SSN8] : 3.32
10. GAGIQIIMQADLALKMG [FAS2] : 2.03
11. IYEVDITVHAPLLPIVE [SNU114] : 2.52
12. ELSDSDRQIINEKMQLL [SIR4] : 2.32
13. TYAAEIAHNISAKNRVV [RPL32] : 2.13
14. KIALMNIPKPLNSYHIK [RGR1] : 1.83
15. HTKFEVAIGLNGKIWVK [RRP40] : 2.56

====

procedureText: protein stability index of a GFP-peptide fusion (yeast GPS) (PSI 1-4); higher = more stable; sorted into four equal gates, so the index is relative within each strain
appliedConditions: pdr5∆
valueKind: protein stability index

1. TLQTISFLGYLRYVKQI [ISW2] : 1.71
2. NNTKAGRRKTWKRQNTL [RPL15A] : 2.95
3. LIASHYGVSFFTIQSFV [BRR2] : 1.89
4. QRTTTGARVFGALKGAS [RPL5] : 2.52
5. IRPLSKPMTAYARADTH [RRP6] : 2.9
6. NKKLIKKLSKKYNAFIA [RPL1A] : 1.94
7. QQQLYGGNNNNNSTGIA [SWI1] : 3.15
8. ERDCVIAYGASQLLLER [RET1] : 1.28
9. DTTFSDFKEVEDFLHFI [SRB4] : 2.09
10. VIEAKINHEDGFIETTE [RPN3] : 1.37
11. ESMLHLSIWIKNYPEYF [IRR1] : 2.06
12. APEKDIWVGEWKEVLAH [RPO31] : 2.17
13. GSIFTHETTFMTAMRLM [YML031W/NDC1] : 2.53
14. KNSFQQALQMKAMDIPI [SWP82] : 1.55
15. TMGEETAKKDMSSTTPK [SNF12] : 3.03
16. WVFSYLRWFELKPKLYY [SIR3] : 1.96
17. EILTNQQRGITYLNEVL [YGR119C/NUP57] : 3.09
18. GALKGASDGGLYVPHSE [RPL5] : 1.88
19. ELPLVITMPATNGKPDM [ARP7] : 3.04
20. KIKQYERLRFYKDTFTL [RRI1] : 2.54
21. HPNRVLEHLHSTAFQNT [COR1] : 2.92
22. EYADNDEDKFKKLKPIV [PRP28] : 2.65
23. KVSYAVKKPQKSKTSTG [SNM1] : 3.15
24. PTITLDDVYRPAAESKI [SNF5] : 3.11
25. LDDNSTSLEKQINSIKK [YJL041W/NSP1] : 3.01
26. NQIQRQQQQQFRHHVQI [SNF5] : 2.08
27. SMGSILLSFVLGVVFGR [YML031W/NDC1] : 2.13
28. MARYGATSTNPAKSASA [RPL17A] : 2.91
29. VPVRDGVTIEFSTNVKD [RPL9A] : 1.58
30. IGGLIPQWKRHLEEYGY [YCS4] : 2.83

====

procedureText: protein stability index of a GFP-peptide fusion (yeast GPS) (PSI 1-4); higher = more stable; sorted into four equal gates, so the index is relative within each strain
appliedConditions: san1∆
Could you please classify the records by protein stability index using these ranges: low bracket: < 2; middle bracket: ≥ 2 and < 3; high bracket: ≥ 3

1. ERDSYKLLASTEENKAN [YIL149C/MLP2] : middle bracket
2. LQIAQLTLKHRQNKVQH [RPN10] : low bracket
3. LNLKFKEKWPSLELQSF [YML103C/NUP188] : low bracket
4. SSDALSKEKANFLETIA [SIR4] : low bracket
5. HGIKDIPIGHVHVIHFQ [AAR2] : middle bracket
6. QGGNNELGTAVGKLFRV [RPL30] : middle bracket
7. LDKFTDGGLFTLFVRDQ [QCR2] : high bracket
8. KLKLLRMERIKDHLLLE [RPT2] : middle bracket
9. GVQTAYIDYSSKRYIPS [RRP40] : middle bracket
10. EHIIRDVHNGYILRYLH [COB] : low bracket
11. PRSDDLEATWNFIEPGI [CDC53] : high bracket
12. AAHYNRERIKRGAHVEK [PRP8] : middle bracket
13. DTLDSKSNGSSDDDNIG [ISW2] : high bracket
14. TRSNPPFKRKMLLVDII [REC8] : middle bracket
15. EPEFHALSQSSLLKTKL [RRI1] : middle bracket
16. SGIRLIEPELFNGYNPE [FAS2] : middle bracket
17. LQDDEDHKFPIRENKVT [BRN1] : middle bracket
18. DLKLLFNTEAEQTVSAV [RGR1] : high bracket
19. DTIATSATPNAAAFSQQ [GAL11] : middle bracket
20. QTKDSVKEIVLPLFYDL [IRR1] : middle bracket
21. YGAYNTQIANAGASPMV [PRE4] : low bracket
22. SKQDASPKPYAVKYGLN [RPL8A] : high bracket
23. DFKPPYIYSHVNKVPQN [SWP82] : middle bracket
24. LSEWEEYLKGSESQLNS [YCS4] : high bracket
25. FLWPFKLSNPSGGWGVP [RPL7A] : high bracket

====

// reported protein stability index for each item listed
procedureText: protein stability index of a GFP-peptide fusion (yeast GPS) (PSI 1-4); higher = more stable; sorted into four equal gates, so the index is relative within each strain
appliedConditions: pdr5∆
valueKind: protein stability index

1) EFQIEDAIWSLVFQLAK [SRB8] : 3.36
2) WLNFLRGTIPLLERYIG [PRP8] : 1.23
3) TSSQKEPFFLVTKITDM [SRB8] : 2.72
4) NLTRGINLRKVAEKMNG [RPT6] : 1.47
5) NNGSKDHGDGILLIDSE [RPN9] : 3.19
6) IDKITDGLGNVVDFTSL [YMR129W/POM152] : 3.53
7) GSLSGNSSSMEEVMRIA [ESC2] : 2.88
8) KPPISDSVFSFGPKKEN [YLR335W/NUP2] : 2.81
9) KDNDKNLKFLKNKDSLV [SRB4] : 3.21
10) TQLQRGGTSDMNYLLDN [CSI1] : 2.82
11) QRRGPLVVYAEDNGIVK [RPL4A] : 3.14
12) VTNNVEEGEFIIDLYSL [TAF14] : 3.48
13) NIERKQTRKEYNTSILE [SIN4] : 2.94
14) LGKKKATVDEFPLCVHL [RPL10] : 2.67
15) TYVLNTWTNSKIFIKDP [YML103C/NUP188] : 2.15
16) ELLEYSDDIAENDNLDN [YCG1] : 3.27
17) AEKYQERSLRQKYNLLH [SNM1] : 2.73
18) LGNGVACDPSEIEPILM [RGR1] : 2.19
19) STVKVSDLNLTDRQKKL [YLR018C/POM34] : 2.75
20) QVRRDIPSAAFNFFEPI [YMR129W/POM152] : 2.23
21) KCIPKKGTVFQFEIPIS [POP4] : 1.68
22) LENATWTMRIEGRLLDN [SNF12] : 2.89
23) KGTEASNDIIDKPYLLR [YDL116W/NUP84] : 3.23
24) ELAESTTTKIIDSTDHI [LRP1] : 3.11
25) NESSTFLKLVLSESPVD [SIN4] : 1.95
26) KILNLEKPLILADYIVE [NUT1] : 1.56
27) VLRLRGALVDRTQPWSI [RPS0A] : 2.44
28) KVDGKVRTDTTYPAGFM [RPS4A] : 3.18
29) PNIHQNLLPKKSAKATK [HTA1] : 2.66
30) MNYLLDNKINEIKLLEI [CSI1] : 2.81
31) LKSQMDTSKALLNVSVN [SKI6] : 2.92
32) DQTNHIESDSILNLLNI [ECM29] : 3.04
33) NSEKYYDEDPYGFEDES [RPB2] : 3.32
34) QPIEKNGDKMPLKFKLG [YJR042W/NUP85] : 2.98
35) DDYEDQDDDDYVDTATA [IRR1] : 3.47
36) DFVRKGGLQKGKLVVSQ [SIR3] : 3.22
37) DVKFPSNTTTQIQFTPL [SMC3] : 2.64
38) NVVGKLISIISSVIQNY [YML103C/NUP188] : 1.44
39) LNTLFNPVTLNEDSKAF [NUT1] : 1.84
40) LNCGNGMGIGFIDHHAA [POP1] : 3.13
41) FDERIKFANQLHDEYLV [RPN3] : 2.02
42) EISTSKKNNLEFGTYGK [RPN14] : 2.13
43) TREDVSPHYNSQKQTLI [SSN3] : 2.71
44) SDLKGKLSSAENANADL [YIL149C/MLP2] : 3.35
45) ERDFYHSLREYINGKAT [RPO31] : 2.43
46) ALTVQEVLNRVASRHPS [YDL116W/NUP84] : 3.15
47) NAGPNSNIPNLLRNLES [YDL088C/ASM4] : 1.96
48) FSKQCLISNAIYGKKTM [ECM29] : 1.95
49) ELAGGNASLTIEDEDEP [SMC1] : 3.09
50) FLGALKYLPHAILKLLE [PRP8] : 1.82
51) ERSYPSEFANQNQGGAQ [ROX3] : 3.07
52) NKLGALKTNFETEWNLQ [RPB11] : 2.9
53) FTIVSLVQLKKFSDLKF [YML103C/NUP188] : 2.5
54) EMVENSSENNQIILAYI [SRP68] : 3.11
55) EVDEKPTETYSDVGGLD [RPT5] : 3.3
56) ESFTEELSNELSRLSTA [MED1] : 3.12
57) VWYGLSDGEDGHIPWHI [SSN2] : 3.25
58) RKWMEEKADYERELISN [YIL149C/MLP2] : 3.35
59) FNPQDTEENIKGETNSE [RRP45] : 3.19
